All figures here come from PubChem BioAssay (NCI).

system: MOLT-4 leukemia; experiment: NCI tumour cell line growth inhibition, 48 h

Compound | System name | Result qualifier | TGI, µM
O=C(/C=C(\S/C=C(/c1ccccc1)N1CCn2c(C(=O)c3ccccc3)c(C(=O)c3ccccc3)c(C(=O)c3ccccc3)c21)C(=O)c1ccccc1)c1ccccc1 | MOLT-4 leukemia | > | 10
C=C1C(O)C[C@H](OC(C)=O)[C@]2(C)C1C(OC(C)=O)[C@]1(C(C)(C)O)CC(O)C(C)=C1[C@@H](OC(=O)c1ccccc1)C2OC(C)=O (some centres undefined) | MOLT-4 leukemia | > | 10
COc1cc(OC)c2c3c(OC)cc(OC)c4c(=O)c(O)c(C[C@@H](C)O)c(c5c(C[C@@H](C)O)c(O)c(=O)c1c25)c43 | MOLT-4 leukemia | = | 39.4
Clc1cccc(NN=Nc2ccc(-c3nc4ccccc4s3)cc2)c1 | MOLT-4 leukemia | = | 40.6

---

test system: SF-539 CNS; test: NCI tumour cell line growth inhibition, 48 h
Examples of molecules with documented TGI follow.

Molecule | System name | TGI
NC1=Nc2cc(Cl)ccc2Sc2nc3ccccc3n21 | SF-539 CNS | > 100 µM
CCOC(=O)C(Cc1ccc(OC(=O)OC(C)(C)C)cc1)NC(=O)OC(C)(C)C (stereo unspecified) | SF-539 CNS | > 100 µM
N#C/C(=C/c1ccc2c(c1)OCO2)C(=O)c1ccccc1 | SF-539 CNS | > 100 µM
Cc1n[nH]c(=O)n1/N=C\c1ccccc1 | SF-539 CNS | > 100 µM
CC(=O)NC(C)(C)C1CCC(C)=C(c2ccccc2)C1 (stereo unspecified) | SF-539 CNS | > 100 µM
CCOC(=O)NC(OC)(C(F)(F)F)C(F)(F)F | SF-539 CNS | > 100 µM
O=C(N=c1ccc2nc(=O)[nH]n(O)c-2c1)C(F)(F)F | SF-539 CNS | > 100 µM
COCN1COCN=C1NC#N | SF-539 CNS | > 100 µM
CC(=O)c1c2c(cc3c1CC1(C3)Cc3cc4c(c(C(C)=O)c3C1)CCC4)CCC2 | SF-539 CNS | > 100 µM
COc1cc(/C=N/Nc2ncnc3c2cnn3-c2ccccc2)ccc1O | SF-539 CNS | > 25 µM
NC(=O)c1ccccc1[N+](=O)[O-] | SF-539 CNS | > 100 µM
O=C(O)c1ccc(C2=Cc3cc(Cl)ccc3OC2)cc1 | SF-539 CNS | > 100 µM
Clc1cccc(NN=Nc2ccc(-c3nc4ccccc4s3)cc2)c1 | SF-539 CNS | > 100 µM
Cc1cccc(C2SCc3nc4ccccc4n32)c1 (stereo unspecified) | SF-539 CNS | > 100 µM
CN(C)C(=N/O)/C(=N\O)N(C)C | SF-539 CNS | > 100 µM
ClC/C=C/COC1CCCCO1 (stereo unspecified) | SF-539 CNS | > 100 µM
CC1=C(c2ccccc2)C(O)(c2ccccc2)C(C)C1=O (stereo unspecified) | SF-539 CNS | > 100 µM
CC1=C(SCCC(=O)OC(C[Se]C2=C(C)C(=O)c3ccccc3C2=O)C(=O)NCCCCCC(=O)OCc2ccccc2)C(=O)c2ccccc2C1=O (stereo unspecified) | SF-539 CNS | 15.3 µM
Cn1cc(-c2ccc3cc(-c4ccc(CC(=O)Nc5cc(C(C)(C)C)on5)cc4)cnc3c2)cn1 | SF-539 CNS | 14.4 µM
COc1ccc(CN2c3ccccc3Sc3ccccc32)c(C(F)(F)F)c1 | SF-539 CNS | 3.89 µM
Cc1cc2c(cc1Cl)S/C(=C/C(=O)O)C(Nc1ccc3ncsc3c1)=NS2(=O)=O | SF-539 CNS | > 34.6 µM
C=CCN(CCNS(=O)(=O)c1ccc(C)cc1)S(=O)(=O)c1ccc(C)cc1 | SF-539 CNS | > 100 µM
CC(O)(P(=O)(O)O)P(=O)(O)OCC(O)CN1CCOCC1 (stereo unspecified) | SF-539 CNS | > 100 µM
Nc1ccc(C2=CC(c3ccc(Cl)cc3)N3C=CSC3=N2)cc1 (stereo unspecified) | SF-539 CNS | 3.85 µM
CN(C)c1ccc(/C=C(\NC(=O)c2ccccc2)C2=NC(CCC(=O)O)C(=O)O2)cc1 (stereo unspecified) | SF-539 CNS | > 50 µM
COC(=O)c1c(O)ccc2[nH]c3c(O)c4ccccc4cc3c12 | SF-539 CNS | 60.3 µM
O=C(/C=C(\S/C=C(/c1ccccc1)N1CCn2c(C(=O)c3ccccc3)c(C(=O)c3ccccc3)c(C(=O)c3ccccc3)c21)C(=O)c1ccccc1)c1ccccc1 | SF-539 CNS | > 10 µM
COC(=O)c1ccc(CN2C(=O)C(Cl)=C(Nc3cccc(Cl)c3C)C2=O)cc1 | SF-539 CNS | 58.7 µM
COC(=O)[C@H](Cc1cnc[nH]1)NC(=O)[C@@H](NC(=O)Nc1cc(C(F)(F)F)cc(C(F)(F)F)c1)C(C)C | SF-539 CNS | 32.3 µM
O=C(CC1OC(O)C(Cl)=C1Cl)c1cccnc1 (stereo unspecified) | SF-539 CNS | 1.41 µM
CN(C)CCNC(=O)c1cccc2cc3c(Cl)cccc3nc12 | SF-539 CNS | 4.03 µM

---

Listed next: entries and their corresponding TGI.
test system: MOLT-4 leukemia; assay: NCI tumour cell line growth inhibition, 48 h

Molecule | System name | TGI
CSc1ccn(C2CC(F)C(CO)O2)c(=O)n1 (stereo not drawn) | MOLT-4 leukemia | > 100 µM
COC1=CC2(CC(OC)=C1OC)OC21COc2ccccc2C1=O (stereo not drawn) | MOLT-4 leukemia | > 100 µM
COc1cc(Nc2ncc(-c3ccccc3)o2)cc(OC)c1 | MOLT-4 leukemia | > 25 µM

---

test system: HCC-2998 colon; assay: NCI tumour cell line growth inhibition, 48 h
Items are presented alongside their recorded TGI.

Molecule | TGI
COC(=O)[C@H](Cc1cnc[nH]1)NC(=O)[C@@H](NC(=O)Nc1cc(C(F)(F)F)cc(C(F)(F)F)c1)C(C)C | 30.7 µM
C=C1CC(Cn2ccc(=O)[nH]c2=O)(c2ccc(Cl)cc2)OC1=O (stereo unspecified) | 31.2 µM
NC(CCOCCP(=O)(O)O)C(=O)O (stereo unspecified) | > 100 µM
O=C(c1ccccc1)C1S(=O)(=O)OCCOS1(=O)=O | > 100 µM
O=C1N2Cc3c4ccc5c3CN3C(=O)N6Cc7c(ccc(c7CN1C6(c1ccccc1)C23c1ccccc1)OCCOCCNCCOCCO4)OCCOCCNCCOCCO5 (stereo unspecified) | > 100 µM
O=C(CSc1nc(-c2ccccc2)c(-c2ccccc2)[nH]1)N/N=C/c1ccc(O)cc1 | 61.1 µM
S=c1[nH]n2c(CCCCCCCCc3nnc4sc(=S)[nH]n34)nnc2s1 | > 100 µM
Clc1ccc(-c2cn3c(nc4ccccc43)c(/C=C/c3ccco3)n2)cc1 | > 100 µM
COc1ccc2c3c([nH]c2c1[N+](=O)[O-])C(C)N(Cc1ccccc1)CC3 (stereo unspecified) | > 100 µM
COc1ccc2c(c1)[nH]c(=O)c1c3cccc(F)c3cn21 | 0.822 µM
Cc1cc(=O)n2nc(CCl)sc2n1 | 31.1 µM
Cc1n[nH]c(=O)n1/N=C\c1ccccc1 | > 100 µM
CCN(Cc1ccccc1)C1CCN(Cc2cc(Br)ccc2O)CC1 | > 100 µM
O=C(Nc1cccc(O)c1)c1ccc(NC2=C(Cl)C(=O)N(Cc3ccc(Cl)cc3Cl)C2=O)cc1 | 33.8 µM
CN(C)c1ccc2oc(=O)c3ccccc3c2c1 | > 100 µM
O=C(CCC=C(S(=O)(=O)c1ccccc1)S(=O)(=O)c1ccccc1)c1ccccc1 | 21.7 µM
Cc1cccc(C)c1NC(=O)C1=NC(=S)NC(c2ccccc2)C1c1nc2ccccc2s1 (stereo unspecified) | > 100 µM
CCOC(=O)c1nc2ccc(C(F)(F)F)cc2nc1Nc1ccc(Cl)c(Cl)c1 | > 100 µM
COc1cc2c3c(n(C)c(=O)c2cc1OC)-c1cc2c(cc1/C3=C\CCCI)OCO2 | > 100 µM
CCOCCCn1c2c(c3c(O)cccc31)C(=O)c1ccccc1-2 | 64.3 µM
Cc1c(N=Nc2ccccc2)c(C)n(C2OC(CO)C(O)C(O)C2O)c(=S)c1C#N (stereo unspecified) | 59.3 µM
Cc1oc2c(c1C)S(=O)(=O)C(C#N)=C(N(C)C)N2 | > 100 µM
COc1ccc(C2C(C#N)=C(S)N(C3OC(COC(C)=O)C(OC(C)=O)C(OC(C)=O)C3OC(C)=O)C(c3ccccc3)=C2C(C)=O)cc1 (stereo unspecified) | > 100 µM
COc1ccc(-c2nc(-c3ccc(C)cc3)cn3ccnc23)cc1 | > 50 µM
CC(=O)Oc1c(-c2ccccc2)sc2ccccc12 | 32 µM
Cc1ccc(C(=O)Nc2ccc(CP(=O)(O)O)cc2CP(=O)(O)O)cc1NC(=O)Nc1cc(C(=O)Nc2ccc(CP(=O)(O)O)cc2CP(=O)(O)O)ccc1C | > 100 µM
CCN(CC)CCCNc1cc(OC)cc2nc3cc(Cl)ccc3nc12 | 2.92 µM
Nc1ccc(C2=CC(c3ccc(Cl)cc3)N3C=CSC3=N2)cc1 (stereo unspecified) | 3.61 µM
N#C/C(=C/c1ccc2c(c1)OCO2)C(=O)c1ccccc1 | > 100 µM
CC(C)(C)OC(=O)CN1CCNCCN(CC(=O)OC(C)(C)C)CCNCC1 | > 100 µM
CC1/C(=N\O)CC(c2ccccc2)N(C)C1c1ccccc1 (stereo unspecified) | > 100 µM
